For each entry below, report its IC50 value.
Molecular target: MAO-B extracted from the rat brain (Rattus norvegicus, UniProt P19643)
Construct: Synaptosomes containing the MAO enzyme were isolated from the rat brain; from tissue; host or cells: rat brain synaptosomes (Dawley rats)
Sequence (P19643 whole entry): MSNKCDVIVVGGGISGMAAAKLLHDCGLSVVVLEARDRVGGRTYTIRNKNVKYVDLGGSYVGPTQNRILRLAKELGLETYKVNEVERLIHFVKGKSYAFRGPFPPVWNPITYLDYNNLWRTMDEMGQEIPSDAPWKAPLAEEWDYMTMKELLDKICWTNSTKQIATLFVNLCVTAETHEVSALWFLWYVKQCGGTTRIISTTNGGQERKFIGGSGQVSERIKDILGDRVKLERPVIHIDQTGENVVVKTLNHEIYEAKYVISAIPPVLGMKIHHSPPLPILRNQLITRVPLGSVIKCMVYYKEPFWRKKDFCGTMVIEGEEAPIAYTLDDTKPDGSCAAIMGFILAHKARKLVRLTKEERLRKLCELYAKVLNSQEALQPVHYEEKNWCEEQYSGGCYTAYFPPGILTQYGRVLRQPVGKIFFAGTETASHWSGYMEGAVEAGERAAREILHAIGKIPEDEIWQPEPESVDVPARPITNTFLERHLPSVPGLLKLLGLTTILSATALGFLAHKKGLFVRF
Experiment: MAO-B inhibition, Amplex Red monoamine oxidase assay kit
Assay type: biochemical
Source text: Synaptosomes containing the MAO enzyme were isolated from the rat brain by the method of Hojas, with some modification. […] For the evaluation of the MAO-B inhibition potential of synthesized compounds, the Amplex® Red Monoamine Oxidase Assay kit was purchased from Invitrogen Molecular Probes, Thermo Fisher Scientific, Waltham, MA, USA. […] The fluorescence of the blank (control with no enzyme) was subtracted to correct the background fluorescence. […]
Numbers only, in µM.

Take each entry in turn and give its IC50.
1. O=C(CNCCc1c[nH]c2ccccc12)c1ccc(-c2ccccc2)cc1 [SR24]
2. O=C(CCNCCc1c[nH]c2ccccc12)c1ccccc1 [SR25]

1. 133
2. 85.1

----------
Target: Human recombinant COX-2 (Homo sapiens, UniProt P35354)
Construct: purchased BioVision (kit manual cited); the text also says reagents came from Sigma-Aldrich K547
Sequence (P35354 18-604): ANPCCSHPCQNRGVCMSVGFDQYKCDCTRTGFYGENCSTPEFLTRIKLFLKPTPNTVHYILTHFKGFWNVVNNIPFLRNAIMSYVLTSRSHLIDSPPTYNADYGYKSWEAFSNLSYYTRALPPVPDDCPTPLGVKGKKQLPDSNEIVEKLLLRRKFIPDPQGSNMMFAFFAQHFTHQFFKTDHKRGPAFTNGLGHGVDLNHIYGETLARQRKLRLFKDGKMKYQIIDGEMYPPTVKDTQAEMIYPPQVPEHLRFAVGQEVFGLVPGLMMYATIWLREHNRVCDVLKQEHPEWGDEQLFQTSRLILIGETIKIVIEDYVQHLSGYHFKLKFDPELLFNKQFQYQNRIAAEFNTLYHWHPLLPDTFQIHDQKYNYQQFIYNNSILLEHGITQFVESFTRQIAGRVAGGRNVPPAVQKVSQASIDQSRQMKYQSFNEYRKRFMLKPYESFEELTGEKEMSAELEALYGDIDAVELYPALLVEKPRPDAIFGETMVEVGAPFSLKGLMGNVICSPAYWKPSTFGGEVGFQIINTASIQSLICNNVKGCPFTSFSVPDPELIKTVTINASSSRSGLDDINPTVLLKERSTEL
Assay: In vitro fluorometric COX-2 inhibition assay kit
Format: biochemical
Settings: compounds tested at 100 µM, mean of three independent measurements, read-out: COX-2 (%Inhibition ± SD)
measured quantity: inhibition at 100 µM

Please review the entries below; each comes with its answer.
Looking for the measured inhibition at 100 µM of O=C(CNCCc1c[nH]c2ccccc12)c1ccc(F)cc1F [SR13] , can you help?
73.8%

Another molecule to check: O=C(CNCCc1c[nH]c2ccccc12)c1ccc(-c2ccccc2)cc1 [SR24]
79.3%

Take each entry in turn and give its inhibition at 100 µM.
1. NCCc1c[nH]c2ccccc12 [Tryptamine]
2. O=C(CNCCc1c[nH]c2ccccc12)c1cccc([N+](=O)[O-])c1 [SR22]
3. Cc1ccc(C(=O)CNCCc2c[nH]c3ccccc23)cc1 [SR14]

1: 57.3%; 2: 84.1%; 3: 65.3%

Take each entry in turn and give its inhibition at 100 µM.
1. O=C(CNCCc1c[nH]c2ccccc12)c1ccc2ccccc2c1 [SR08]
2. O=C(CCNCCc1c[nH]c2ccccc12)c1ccccc1 [SR25]
3. O=C(CNCCc1c[nH]c2ccccc12)c1ccc(F)cc1 [SR10]

72.3%
> 70%
> 70%

Take each entry in turn and give its inhibition at 100 µM.
1. COc1ccc(C(=O)CNCCc2c[nH]c3ccccc23)cc1 [SR17]
2. O=C(CNCCc1c[nH]c2ccccc12)c1ccc(O)c(O)c1 [SR20]

1: 72.8%; 2: 68.7%

----------
The following compounds have recorded pIC50 on UniProt O42275.
Numbers only, as −log10 of the molar value.

Looking for the measured pIC50 of `O=C(CCNCCc1c[nH]c2ccccc12)c1ccccc1` , can you help?
6.77

Another compound to check: `O=C(CNCCc1c[nH]c2ccccc12)c1ccc(O)c(O)c1`
4.60

Now look at this one.
Looking for the measured pIC50 of `O=C(CNCCc1c[nH]c2ccccc12)c1ccc(-c2ccccc2)cc1` , can you help?
5.17

----------
Target: AChE from electric eel (Electrophorus electricus, UniProt O42275)
Sequence (O42275 24-633): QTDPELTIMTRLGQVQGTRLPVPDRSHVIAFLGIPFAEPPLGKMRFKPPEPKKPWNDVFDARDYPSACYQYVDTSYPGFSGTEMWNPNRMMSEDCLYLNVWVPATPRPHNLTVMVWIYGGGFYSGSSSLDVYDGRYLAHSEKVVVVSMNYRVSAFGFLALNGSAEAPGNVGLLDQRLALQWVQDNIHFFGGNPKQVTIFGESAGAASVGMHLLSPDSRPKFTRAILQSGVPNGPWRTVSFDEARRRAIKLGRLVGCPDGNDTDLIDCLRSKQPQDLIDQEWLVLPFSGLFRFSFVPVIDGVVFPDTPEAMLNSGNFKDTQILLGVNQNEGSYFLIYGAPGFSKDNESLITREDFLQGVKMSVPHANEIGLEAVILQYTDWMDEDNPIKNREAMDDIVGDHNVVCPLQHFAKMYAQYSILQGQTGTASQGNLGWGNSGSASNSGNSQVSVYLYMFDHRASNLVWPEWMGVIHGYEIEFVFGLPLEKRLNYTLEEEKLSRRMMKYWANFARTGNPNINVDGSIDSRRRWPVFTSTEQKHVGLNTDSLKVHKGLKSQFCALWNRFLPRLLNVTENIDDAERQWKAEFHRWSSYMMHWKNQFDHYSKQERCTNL
Assay: biochemical
Settings: mean of three independent measurements, read-out: AChE (IC50 ± SD)
For each entry below, report its pIC50 value.
Numbers only, as −log10 of the molar value.

Looking for the measured pIC50 of O=C(CNCCc1c[nH]c2ccccc12)c1cccc([N+](=O)[O-])c1 [SR22] , can you help?
4.26

Another compound to check: COc1ccc(C(=O)CNCCc2c[nH]c3ccccc23)cc1 [SR17]
5.08

Another compound to check: NCCc1c[nH]c2ccccc12 [Tryptamine]
4.05

Take each entry in turn and give its pIC50.
1. O=C(CNCCc1c[nH]c2ccccc12)c1ccc(F)cc1F [SR13]
2. O=C(CNCCc1c[nH]c2ccccc12)c1ccc2ccccc2c1 [SR08]
3. O=C(CNCCc1c[nH]c2ccccc12)c1ccccc1[N+](=O)[O-] [SR21]
4. O=C(CNCCc1c[nH]c2ccccc12)c1ccc(F)cc1 [SR10]
5. Cc1ccc(C(=O)CNCCc2c[nH]c3ccccc23)cc1 [SR14]

5.01
5.36
4.06
6.00
4.16

Take each entry in turn and give its pIC50.
1. O=C(NCCc1c[nH]c2ccccc12)c1cc([N+](=O)[O-])cc([N+](=O)[O-])c1 [SR42]
2. O=C(CNCCc1c[nH]c2ccccc12)c1ccc([N+](=O)[O-])cc1 [SR23]

[6.15, 5.13]

----------
Biological target: MAO-B extracted from the rat brain (Rattus norvegicus, UniProt P19643)
Construct: Synaptosomes containing the MAO enzyme were isolated from the rat brain; from tissue; host or cells: rat brain synaptosomes (Dawley rats)
Test: MAO-B inhibition, Amplex Red monoamine oxidase assay kit
Assay type: biochemical
Details: MAO-B extracted from rat brain; substrate benzylamine; mean of three independent measurements; read-out: MAO-B (IC50 ± SD)
measured quantity: pIC50
Numbers only, as −log10 of the molar value.

Please review the entries below; each comes with its answer.
Looking for the measured pIC50 of `O=C(NCCc1c[nH]c2ccccc12)c1cc([N+](=O)[O-])cc([N+](=O)[O-])c1` , can you help?
4.36

Another molecule to check: `COc1ccc(C(=O)CNCCc2c[nH]c3ccccc23)cc1`
3.82

Take each entry in turn and give its pIC50.
1. O=C(CNCCc1c[nH]c2ccccc12)c1ccc2ccccc2c1
2. NCCc1c[nH]c2ccccc12
3. O=C(CNCCc1c[nH]c2ccccc12)c1ccc(F)cc1F
4. O=C(CNCCc1c[nH]c2ccccc12)c1ccccc1[N+](=O)[O-]
5. O=C(CNCCc1c[nH]c2ccccc12)c1ccc(F)cc1
6. O=C(CNCCc1c[nH]c2ccccc12)c1ccc(O)c(O)c1
7. O=C(CNCCc1c[nH]c2ccccc12)c1ccc([N+](=O)[O-])cc1
8. O=C(CNCCc1c[nH]c2ccccc12)c1cccc([N+](=O)[O-])c1

[3.61, 3.54, 4.30, 3.85, 3.67, 3.65, 4.02, 4.25]

Take each entry in turn and give its pIC50.
1. Cc1ccc(C(=O)CNCCc2c[nH]c3ccccc23)cc1
2. C#CCN(C)Cc1ccccc1 [Pargyline, reference compound]

[3.95, 4.63]

----------
For each entry below, report its inhibition at 100 µM value.
Molecular target: Human recombinant COX-2 (Homo sapiens, UniProt P35354)
Construct: purchased BioVision (kit manual cited); the text also says reagents came from Sigma-Aldrich K547
Assay: In vitro fluorometric COX-2 inhibition assay kit
Format: biochemical
Settings: compounds tested at 100 µM, mean of three independent measurements, read-out: COX-2 (%Inhibition ± SD)
Give bare numbers, in %.

Looking for the measured inhibition at 100 µM of `O=C(CNCCc1c[nH]c2ccccc12)c1ccccc1[N+](=O)[O-]` , can you help?
34.4

Now look at this one.
Looking for the measured inhibition at 100 µM of `O=C(CNCCc1c[nH]c2ccccc12)c1ccc([N+](=O)[O-])cc1` , can you help?
69.4

These measurements were taken from paper PMC10820890.
